meta.source: the supplement of paper PMC10899765

Tested on: MCF10A
Assay: 5+ nucleoli phenotype percent effect (relative to siNT 0% and siKIF11 100%); higher = more cells with five or more nucleoli
Settings: 20 nM; 72 h
# cutoff 10% applies to 5+ nucleoli phenotype percent effect; >= gives t, < gives f

input_sequence="CUCGGGGCAGGCGGCUGGGAGCG [hsa-miR-6727-5p]" target_under_test=MCF10A label_class=t
input_sequence="CUGUCCUAAGGUUGUUGAGUU [hsa-miR-676-3p]" target_under_test=MCF10A label_class=t
input_sequence="CCUCCAAAGGGAAGCGCUUUCUGUU [hsa-miR-519d-5p]" target_under_test=MCF10A label_class=t
input_sequence="AAGCUGCCAGUUGAAGAACUGU [hsa-miR-22-3p]" target_under_test=MCF10A label_class=f
input_sequence="UCGAGGAGCUCACAGUCU [hsa-miR-151b]" target_under_test=MCF10A label_class=t
input_sequence="UCAUAGCCCUGUACAAUGCUGCU [hsa-miR-103b]" target_under_test=MCF10A label_class=f

====

System: MCF10A
Assay: percent viability (nuclei count relative to siNT); higher = more viable cells
Conditions: 20 nM; 72 h
Each entry below carries its reported percent viability.
Endpoint name: percent viability (%)

input_sequence="GCGGAAGGCGGAGCGGCGGA [hsa-miR-6125]" endpoint_name="percent viability" value_measured=155
input_sequence="CGCUUUGCUCAGCCAGUGUAG [hsa-miR-1251-3p]" endpoint_name="percent viability" value_measured=76.2
input_sequence="UCAAAAUGUAGAGGAAGACCCCA [hsa-miR-4698]" endpoint_name="percent viability" value_measured=127
input_sequence="UUGUCUGCUGAGUUUCC [hsa-miR-4288]" endpoint_name="percent viability" value_measured=31.9
input_sequence="UAGGCCUUUAGAUCACUUAAA [hsa-miR-1245b-5p]" endpoint_name="percent viability" value_measured=21.5
input_sequence="UGGCAGGGAGGCUGGGAGGGG [hsa-miR-1207-5p]" endpoint_name="percent viability" value_measured=24.4
input_sequence="UCGCGGUUUGUGCCAGAUGACG [hsa-miR-579-5p]" endpoint_name="percent viability" value_measured=64.6
input_sequence="AGCAGGUGCGGGGCGGCG [hsa-miR-3665]" endpoint_name="percent viability" value_measured=33
input_sequence="AUGGGUGAAUUUGUAGAAGGAU [hsa-miR-1262]" endpoint_name="percent viability" value_measured=27.2
input_sequence="GUGGGCGGGGGCAGGUGUGUG [hsa-miR-1228-5p]" endpoint_name="percent viability" value_measured=64.8
input_sequence="UGGACUGCCCUGAUCUGGAGA [hsa-miR-1288]" endpoint_name="percent viability" value_measured=33
input_sequence="CACUGCAGGACUCAGCAG [hsa-miR-4418]" endpoint_name="percent viability" value_measured=55.1
input_sequence="GCCCCGGGCAGUGUGAUCAUC [hsa-miR-5587-3p]" endpoint_name="percent viability" value_measured=108
input_sequence="AGAAGGAAAUUGAAUUCAUUUA [hsa-miR-1252]" endpoint_name="percent viability" value_measured=148
input_sequence="AAAGGUAAUUGCAGUUUUUCCC [hsa-miR-570-5p]" endpoint_name="percent viability" value_measured=95.2
input_sequence="GCUGGUGCAAAAGUAAUGGCGG [hsa-miR-548q]" endpoint_name="percent viability" value_measured=30.5
input_sequence="CCCCUGGGGCUGGGCAGGCGGA [hsa-miR-6791-5p]" endpoint_name="percent viability" value_measured=107
input_sequence="UCUACAAAGGAAAGCGCUUUCU [hsa-miR-1283]" endpoint_name="percent viability" value_measured=148
input_sequence="UGUUCUCUUUGCCAAGGACAG [hsa-miR-2117]" endpoint_name="percent viability" value_measured=56.1
input_sequence="UAAAGACUGUAGAGGCAACUGGU [hsa-miR-7161-5p]" endpoint_name="percent viability" value_measured=79.8
input_sequence="ACUGGGUAGGUGGGGCUCCAGG [hsa-miR-6861-5p]" endpoint_name="percent viability" value_measured=31.9
input_sequence="UAACCCUGUCCUCUCCCUCCCAG [hsa-miR-6732-3p]" endpoint_name="percent viability" value_measured=36.4
input_sequence="UCACAAAUCUAUAAUAUGCAGG [hsa-miR-4719]" endpoint_name="percent viability" value_measured=149
input_sequence="UGAGAACUGAAUUCCAUAGGCU [hsa-miR-146b-5p]" endpoint_name="percent viability" value_measured=52.1
